- System: HEK-293T
- assay_details: Multiplex assay against HEK293T
- Type: toxicity, cell-based
- particulars: human, 12 h, 1 µM, compound concentration 1 uM, replicate 1
observable: Population Pyknosed Nuclei (%)
Numeric only. Scale: %

Observe how each entry below is paired with its result.
- molecule: "Br.CS(=O)(=O)Nc1c(O)ccc2c1CCCC2C1=NCCN1 (stereo not given)"
  scale_unit: "%"
  Population Pyknosed Nuclei (%): 12
- molecule: "NCCc1cn(S(=O)(=O)c2c(Cl)nc3sccn23)c2ccccc12.O=C(O)C(=O)O"
  scale_unit: "%"
  Population Pyknosed Nuclei (%): 11
- molecule: "CN(C)C(=O)Cn1cc(-c2ccc(-c3cncc4ccccc34)cc2)cn1"
  scale_unit: "%"
  Population Pyknosed Nuclei (%): 12
- molecule: "COC[C@@H](c1ccc(C(F)(F)F)cc1)N1CCN(C2(C)CCN(C(=O)c3c(C)ncnc3C)CC2)C[C@@H]1C.O=C(O)/C=C\\C(=O)O [VICRIVIROC MALEATE]"
  scale_unit: "%"
  Population Pyknosed Nuclei (%): 12
- molecule: "Cc1c(CC(=O)O)c2cccnc2n1Cc1ccc(S(C)(=O)=O)cc1C(F)(F)F [FEVIPIPRANT]"
  scale_unit: "%"
  Population Pyknosed Nuclei (%): 9
- molecule: "CN1CCN(c2cc(-c3ccccc3)nc(N)n2)CC1"
  scale_unit: "%"
  Population Pyknosed Nuclei (%): 11
- molecule: "CCCCCC(O)/C=C/[C@H]1C(=O)CC(O)C1C/C=C\\CCCC(=O)O (stereo not given in full)"
  scale_unit: "%"
  Population Pyknosed Nuclei (%): 11
- molecule: "CC(=O)Nc1cccc2c1c(Sc1ccc(Cl)cc1)c(C)n2CC(=O)O [AZD1981]"
  scale_unit: "%"
  Population Pyknosed Nuclei (%): 11

[in] Entry under review: `Cc1onc(-c2ccccc2Cl)c1C(=O)N(C)c1ccc(Cl)cc1` . Reported Population Pyknosed Nuclei (%)?
[out] 12

[in] Endpoint output: Population Pyknosed Nuclei (%) of `O=C1[C@H](Cc2ccc(O)cc2)N2C(=O)CCN(C(=O)NCc3ccccc3)[C@H]2CN1Cc1cccc2ccccc12` . Value?
[out] 12

* * *

Attribute: Population Mitochondria Different-Phenotype (%)
- System: U2OS
- assay_details: Multiplex assay against U2OS
- Format: toxicity, cell-based
- particulars: human, 48 h, 10 µM, compound concentration 10 uM, replicate 2
Write the quantity with the unit trailing the number.

- compound_string: "CCCOc1ccc2[nH]cc(C3=CCNCC3)c2n1.Cl"
  recorded_measurement: "3%"

[in] Recorded Population Mitochondria Different-Phenotype (%) for `CCCCC(=O)N(Cc1ccc(-c2ccccc2-c2nnn[nH]2)cc1)[C@H](C(=O)O)C(C)C` , please?
[out] 3%

[in] Please report the recorded Population Mitochondria Different-Phenotype (%) for `CCc1cc2cc(NS(=O)(=O)c3ccc(C#N)cc3)ccc2n(CC)c1=O` .
[out] 3%

* * *

# Population Normal (%) annotations
- System: Fibroblast
- assay_details: Multiplex assay against human fibroblast
- Type: toxicity, cell-based
- particulars: 24 h, 10 µM, compound concentration 10 uM, replicate 2

Sample records with Population Normal (%):
- compound_string: "CC(C)COc1ccc(CNC(=O)N(Cc2ccc(F)cc2)C2CCN(C)CC2)cc1"
  Population Normal (%): "91%"
- compound_string: "N#Cc1cc(F)cc(-c2nc(-c3ccc(F)cn3)no2)c1"
  Population Normal (%): "88%"
- compound_string: "CC[C@@H](C)Nc1nc(C)nc2c(-c3ccc(OC)nc3C)c(C)nn12"
  Population Normal (%): "92%"

[in] GET /values?readout=Population Normal (%)&item= `O=C1[C@H](Cc2ccc(O)cc2)N2C(=O)CCN(C(=O)NCc3ccccc3)[C@H]2CN1Cc1cccc2ccccc12`
[out] 92%

[in] # get_value(readout='Population Normal (%)', item= `COc1cccc2c1c(NS(=O)(=O)c1ccc(Cl)s1)nn2Cc1cccc(CNC(=O)C(C)(C)O)c1` )
[out] 92%

[in] Need Population Normal (%), item `N#Cc1c(Oc2cccc(OS(=O)(=O)CCCC(F)(F)F)c2)cccc1C(F)(F)F`
[out] 91%
